# assay summary: Therapeutic index expressed as the ratio of IC50 to EC50
# condition set: rat; read-out: Therapeutic index
measure name: selectivity ratio

record smiles	measure name	data value
CSc1cc(N)ccc1/N=N/c1ccc(S(N)(=O)=O)cc1	selectivity ratio	> 1.76
NS(=O)(=O)c1ccc(/N=N/c2ccc(NCS(=O)(=O)O)cc2)cc1	selectivity ratio	> 1.29
CCN(CC)CCNc1ccc(/N=N/c2ccc(S(N)(=O)=O)cc2)c2ccccc12	selectivity ratio	1.47
CN(C)c1ccc(/N=N/c2ccc(S(N)(=O)=O)cc2)cc1	selectivity ratio	> 7.75
